assay: Clinical plasma PK, study RMC-5552-001; assay type: in vivo, human; details: 6 mg, C1D8 (EOI)
Measurement Label: Cmax (nM)
All answers are understood in nM, so give the number only.

In: Give the measured Cmax of CO[C@H]1C[C@@H]2CC[C@@H](C)[C@@](O)(O2)C(=O)C(=O)N2CCCC[C@H]2C(=O)O[C@H]([C@H](C)C[C@@H]2CC[C@@H](OC(=O)NCCOCCOCCOCCOCCOCCOCCOCCOCCC(=O)N3CCc4cc(Cn5nc(-c6ccc7oc(N)nc7c6)c6c(N)ncnc65)ccc4C3)[C@H](OC)C2)C[C@@H](O)[C@H](C)/C=C(\C)[C@@H](O)[C@@H](OC)C(=O)[C@H](C)C[C@H](C)/C=C/C=C/C=C/1C .
Out: 150

====

assay: Clinical plasma PK, study RMC-5552-001; type: in vivo, human; conditions: 8 mg, C1D8 (EOI)
Measurement Label: Cmax (nM)
Report as a plain number; the unit nM is understood.

In: // lookup Cmax for CO[C@H]1C[C@@H]2CC[C@@H](C)[C@@](O)(O2)C(=O)C(=O)N2CCCC[C@H]2C(=O)O[C@H]([C@H](C)C[C@@H]2CC[C@@H](OC(=O)NCCOCCOCCOCCOCCOCCOCCOCCOCCC(=O)N3CCc4cc(Cn5nc(-c6ccc7oc(N)nc7c6)c6c(N)ncnc65)ccc4C3)[C@H](OC)C2)C[C@@H](O)[C@H](C)/C=C(\C)[C@@H](O)[C@@H](OC)C(=O)[C@H](C)C[C@H](C)/C=C/C=C/C=C/1C [RMC-5552]
Out: 242

====

test: Clinical plasma PK, study RMC-5552-001; format: in vivo, human; settings: 1.6 mg, C1D15
Measurement Label: Cmax (nM)
Numbers only here, please. The scale is nM.

In: Report Cmax for CO[C@H]1C[C@@H]2CC[C@@H](C)[C@@](O)(O2)C(=O)C(=O)N2CCCC[C@H]2C(=O)O[C@H]([C@H](C)C[C@@H]2CC[C@@H](OC(=O)NCCOCCOCCOCCOCCOCCOCCOCCOCCC(=O)N3CCc4cc(Cn5nc(-c6ccc7oc(N)nc7c6)c6c(N)ncnc65)ccc4C3)[C@H](OC)C2)C[C@@H](O)[C@H](C)/C=C(\C)[C@@H](O)[C@@H](OC)C(=O)[C@H](C)C[C@H](C)/C=C/C=C/C=C/1C please.
Out: 35.3
